% viability MDA-MB-436 overview
System: MDA-MB-436
Assay: in vitro cytotoxicity, MTT assay, MDA-MB-436
Settings: log conc. 2 (100uM); MTT lab report
// return numeric value only (unit: %, not printed)

Observe how each entry below is paired with its result.
- molecule: "Cc1cc(C)n(S(=O)(=O)c2ccc3[nH]c(=O)c(=O)[nH]c3c2)n1"
  target.desc: "MDA-MB-436"
  recorded.endpoint: "% viability MDA-MB-436"
  data.value: 28.36
- molecule: "Cc1cc(O)n(S(=O)(=O)c2ccc3[nH]c(=O)c(=O)[nH]c3c2)n1"
  target.desc: "MDA-MB-436"
  recorded.endpoint: "% viability MDA-MB-436"
  data.value: 42.01
- molecule: "Cc1csc(=NNS(=O)(=O)c2ccc3[nH]c(=O)c(=O)[nH]c3c2)n1C(=O)c1ccccc1 [Compound 10b]"
  target.desc: "MDA-MB-436"
  recorded.endpoint: "% viability MDA-MB-436"
  data.value: 32.38
- molecule: "COc1ccc(NC(=S)NNS(=O)(=O)c2ccc3[nH]c(=O)c(=O)[nH]c3c2)cc1"
  target.desc: "MDA-MB-436"
  recorded.endpoint: "% viability MDA-MB-436"
  data.value: 35.79

Recorded % viability MDA-MB-436 of CC(=O)c1sc(=NNS(=O)(=O)c2ccc3[nH]c(=O)c(=O)[nH]c3c2)n(C(=O)c2ccccc2)c1C [Compound 11b] , please. 35.26

###

Biological target: PARP-1 (Homo sapiens, UniProt P09874)
Sequence (P09874 whole entry): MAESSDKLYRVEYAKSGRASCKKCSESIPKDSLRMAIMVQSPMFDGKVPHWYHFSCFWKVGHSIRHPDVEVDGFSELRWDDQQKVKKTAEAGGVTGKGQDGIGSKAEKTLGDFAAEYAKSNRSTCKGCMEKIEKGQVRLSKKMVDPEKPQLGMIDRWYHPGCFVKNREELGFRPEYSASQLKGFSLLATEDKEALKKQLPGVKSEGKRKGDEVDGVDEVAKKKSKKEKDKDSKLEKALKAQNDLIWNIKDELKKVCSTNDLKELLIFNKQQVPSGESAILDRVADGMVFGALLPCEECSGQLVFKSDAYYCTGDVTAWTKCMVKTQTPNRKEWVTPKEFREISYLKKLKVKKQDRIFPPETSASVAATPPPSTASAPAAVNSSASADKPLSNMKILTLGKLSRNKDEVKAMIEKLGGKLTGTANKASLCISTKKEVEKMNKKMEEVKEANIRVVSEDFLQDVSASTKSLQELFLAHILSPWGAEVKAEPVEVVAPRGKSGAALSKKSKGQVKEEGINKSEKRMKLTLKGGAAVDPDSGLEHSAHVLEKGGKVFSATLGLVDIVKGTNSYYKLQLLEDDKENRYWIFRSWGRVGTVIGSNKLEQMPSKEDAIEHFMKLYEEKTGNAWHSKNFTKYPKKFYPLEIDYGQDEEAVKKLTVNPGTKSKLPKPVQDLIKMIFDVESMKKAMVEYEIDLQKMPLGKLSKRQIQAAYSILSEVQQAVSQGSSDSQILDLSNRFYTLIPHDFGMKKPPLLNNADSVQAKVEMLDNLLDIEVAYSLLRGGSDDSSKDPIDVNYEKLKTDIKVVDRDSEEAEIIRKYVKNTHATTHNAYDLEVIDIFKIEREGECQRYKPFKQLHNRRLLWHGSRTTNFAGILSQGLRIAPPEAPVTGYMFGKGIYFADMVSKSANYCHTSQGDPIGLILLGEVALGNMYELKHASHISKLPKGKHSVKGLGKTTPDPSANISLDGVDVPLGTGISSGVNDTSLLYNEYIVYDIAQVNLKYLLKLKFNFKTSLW
Threshold check on IC50: strictly below 40 nM is true (1); on or above 40 nM is false (0).

- compound: "Cc1cc(O)n(S(=O)(=O)c2ccc3[nH]c(=O)c(=O)[nH]c3c2)n1"
  class.name: "true (1)"
- compound: "COc1ccc(-n2c(=O)cc(O)n(NS(=O)(=O)c3ccc4[nH]c(=O)c(=O)[nH]c4c3)c2=S)cc1"
  class.name: "false (0)"
- compound: "Cc1csc(=NNS(=O)(=O)c2ccc3[nH]c(=O)c(=O)[nH]c3c2)n1C(=O)c1ccccc1 [Compound 10b]"
  class.name: "true (1)"
- compound: "COc1ccc(-n2c(C)c(C(C)=O)sc2=NNS(=O)(=O)c2ccc3[nH]c(=O)c(=O)[nH]c3c2)cc1 [Compound 11a]"
  class.name: "true (1)"
- compound: "CC(=O)c1sc(=NNS(=O)(=O)c2ccc3[nH]c(=O)c(=O)[nH]c3c2)n(C(=O)c2ccccc2)c1C [Compound 11b]"
  class.name: "true (1)"

IC50 under 40 nM? Item: COc1ccc(-n2c(C)csc2=NNS(=O)(=O)c2ccc3[nH]c(=O)c(=O)[nH]c3c2)cc1 [Compound 10a] true (1)

Could you do the same for COc1ccc(N2C(=O)CSC2=NNS(=O)(=O)c2ccc3[nH]c(=O)c(=O)[nH]c3c2)cc1 [Compound 12a] , please? true (1)

Could you do the same for O=C1C=CC(=O)N1NS(=O)(=O)c1ccc2[nH]c(=O)c(=O)[nH]c2c1 , please? true (1)

Could you do the same for O=C1c2ccccc2C(=O)N1NS(=O)(=O)c1ccc2[nH]c(=O)c(=O)[nH]c2c1 , please? false (0)

###

Molecular target: PARP-1 (Homo sapiens, UniProt P09874)
Construct: purchased BPS Bioscience 80580
Assay: colorimetric 96-well PARP-1 assay kit (BPS Bioscience)
Format: biochemical
Details: ratio of IC50 values
fold less PARP-1 inhibitory activity than reference drug Olaparib overview
// return numeric value only (unit: fold, not printed)

- line.notation: "NNS(=O)(=O)c1ccc2[nH]c(=O)c(=O)[nH]c2c1"
  data.value: 3

Would you kindly look at the next entry?
Recorded fold less PARP-1 inhibitory activity than reference drug Olaparib of O=C(NC(=S)NNS(=O)(=O)c1ccc2[nH]c(=O)c(=O)[nH]c2c1)c1ccccc1 , please. 2.5

###

System: MDA-MB-436
Assay: in vitro cytotoxicity, MTT assay, MDA-MB-436
Settings: log conc. 0.796 (6.3uM); MTT lab report
recorded.endpoint: % viability MDA-MB-436
In your response, the unit should come after the numeric value.

Observe how each entry below is paired with its result.
- compound: "Cc1csc(=NNS(=O)(=O)c2ccc3[nH]c(=O)c(=O)[nH]c3c2)n1C(=O)c1ccccc1 [Compound 10b]"
  data.value: "52.38%"
- compound: "CC(=O)c1sc(=NNS(=O)(=O)c2ccc3[nH]c(=O)c(=O)[nH]c3c2)n(C(=O)c2ccccc2)c1C [Compound 11b]"
  data.value: "55.11%"
- compound: "Cc1cc(O)n(S(=O)(=O)c2ccc3[nH]c(=O)c(=O)[nH]c3c2)n1"
  data.value: "60.12%"
- compound: "COc1ccc(NC(=S)NNS(=O)(=O)c2ccc3[nH]c(=O)c(=O)[nH]c3c2)cc1"
  data.value: "53.52%"

Would you kindly look at the next entry?
Any idea what % viability MDA-MB-436 came out for Cc1cc(C)n(S(=O)(=O)c2ccc3[nH]c(=O)c(=O)[nH]c3c2)n1 on MDA-MB-436? 45.17%

###

Biological target: PARP-1 (Homo sapiens)
pIC50 overview
Scale: pIC50 equals -log10([C]), with [C] in mol/L.

Observe how each entry below is paired with its result.
- line.notation: "O=C1CCC(=O)N1NS(=O)(=O)c1ccc2[nH]c(=O)c(=O)[nH]c2c1"
  pIC50: 7.24
- line.notation: "Cc1cc(C)n(S(=O)(=O)c2ccc3[nH]c(=O)c(=O)[nH]c3c2)n1"
  pIC50: 8.52
- line.notation: "COc1ccc(NC(=S)NNS(=O)(=O)c2ccc3[nH]c(=O)c(=O)[nH]c3c2)cc1"
  pIC50: 8.64

Recorded pIC50 of O=C1CC(=O)N(S(=O)(=O)c2ccc3[nH]c(=O)c(=O)[nH]c3c2)N1 , please. 7.88

###

Tested on: MDA-MB-436
Test: in vitro cytotoxicity, MTT assay, MDA-MB-436
Conditions: log conc. -0.409 (0.4uM); MTT lab report
% viability MDA-MB-436 overview
// return numeric value only (unit: %, not printed)

Observe how each entry below is paired with its result.
- compound: "Cc1cc(O)n(S(=O)(=O)c2ccc3[nH]c(=O)c(=O)[nH]c3c2)n1"
  % viability MDA-MB-436 / %: 81.83
- compound: "Cc1cc(C)n(S(=O)(=O)c2ccc3[nH]c(=O)c(=O)[nH]c3c2)n1"
  % viability MDA-MB-436 / %: 60.26

Recorded % viability MDA-MB-436 of COc1ccc(NC(=S)NNS(=O)(=O)c2ccc3[nH]c(=O)c(=O)[nH]c3c2)cc1 , please. 73.41

Could you do the same for Cc1csc(=NNS(=O)(=O)c2ccc3[nH]c(=O)c(=O)[nH]c3c2)n1C(=O)c1ccccc1 [Compound 10b] , please? 72.68

Could you do the same for CC(=O)c1sc(=NNS(=O)(=O)c2ccc3[nH]c(=O)c(=O)[nH]c3c2)n(C(=O)c2ccccc2)c1C [Compound 11b] , please? 73.47

###

Test system: MDA-MB-436
Test: in vitro cytotoxicity, MTT assay, MDA-MB-436
Details: log conc. 1.398 (25uM); MTT lab report
recorded.endpoint: % viability MDA-MB-436
In your response, the unit should come after the numeric value.

Observe how each entry below is paired with its result.
- molecule: "Cc1cc(C)n(S(=O)(=O)c2ccc3[nH]c(=O)c(=O)[nH]c3c2)n1"
  data.value: "37.05%"
- molecule: "COc1ccc(NC(=S)NNS(=O)(=O)c2ccc3[nH]c(=O)c(=O)[nH]c3c2)cc1"
  data.value: "43.91%"
- molecule: "CC(=O)c1sc(=NNS(=O)(=O)c2ccc3[nH]c(=O)c(=O)[nH]c3c2)n(C(=O)c2ccccc2)c1C [Compound 11b]"
  data.value: "44.77%"
- molecule: "Cc1csc(=NNS(=O)(=O)c2ccc3[nH]c(=O)c(=O)[nH]c3c2)n1C(=O)c1ccccc1 [Compound 10b]"
  data.value: "43.29%"

Would you kindly look at the next entry?
Recorded % viability MDA-MB-436 of Cc1cc(O)n(S(=O)(=O)c2ccc3[nH]c(=O)c(=O)[nH]c3c2)n1 , please. 51.83%

###

Test system: MDA-MB-436
Experiment: in vitro cytotoxicity, MTT assay, MDA-MB-436
Conditions: log conc. 0.193 (1.6uM); MTT lab report
recorded.endpoint: % viability MDA-MB-436 (%)
// return numeric value only (unit: %, not printed)

Observe how each entry below is paired with its result.
- compound: "Cc1cc(C)n(S(=O)(=O)c2ccc3[nH]c(=O)c(=O)[nH]c3c2)n1"
  data.value: 53.46
- compound: "COc1ccc(NC(=S)NNS(=O)(=O)c2ccc3[nH]c(=O)c(=O)[nH]c3c2)cc1"
  data.value: 61.23
- compound: "Cc1csc(=NNS(=O)(=O)c2ccc3[nH]c(=O)c(=O)[nH]c3c2)n1C(=O)c1ccccc1 [Compound 10b]"
  data.value: 65.24
- compound: "CC(=O)c1sc(=NNS(=O)(=O)c2ccc3[nH]c(=O)c(=O)[nH]c3c2)n(C(=O)c2ccccc2)c1C [Compound 11b]"
  data.value: 62.03

Would you kindly look at the next entry?
Recorded % viability MDA-MB-436 of Cc1cc(O)n(S(=O)(=O)c2ccc3[nH]c(=O)c(=O)[nH]c3c2)n1 , please. 69.76
